In this section, each of the compounds is paired with its reported pIC50.
Test system: calcium flux (release of Ca2+) in SK-N-SH nerve cells
METHOD DESCRIPTION: Inhibition of calcium flux (IC50Ca2+) on nerve cells SK-N-SH
Assay type: cell-based
EXPERIMENTAL CONDITIONS: Homo sapiens, 50% inhibitory concentration for the release of Ca2+
pIC50: −log10 of the molar value.

COMPOUND	pIC50
COc1ccc(CCN(C)CCC(=O)c2ccccc2)cc1OC	4.85
CN(CCC(=O)c1ccccc1)CCC(=O)c1ccccc1.Cl	4.44
CCCCCC(O)(CCCCC)CCN(CC)CCC(=O)c1ccccc1	5.52
CCCCCCCN(C)CCC(=O)c1ccccc1	4.59
COc1cc(CNCCC(=O)c2ccccc2)ccc1O	4.39
CCCCCCCNCCC(=O)c1ccccc1	4.44
CCN(CCCc1ccccc1)CCCc1ccccc1 [alverine, reference compound]	4.52
CCCCCC(=O)CCN(CC)CCC(=O)c1ccccc1	4.54
